Test system: P12-ICHIKAWA (T-Lymphoblastic Leukemia)
Test: combination Emax (second highest fraction inhibited in the dose matrix, 72 h); higher = more inhibition; extreme values may be limits of the assay
QUANTITY: combination Emax

I am curious: what combination Emax value has been reported for Cc1c2c(nn1C)CSCc1cc(n(C)n1)CSc1cc(c3ccccc3c1)OCCCc1c(C(=O)O)n(C)c3c-2c(Cl)ccc13 [AZD5991] + C[C@@H]1COCCN1C2=NC(=NC(=C2)C3(CC3)[S@](=N)(=O)C)C4=C5C=CNC5=NC=C4 [AZD6738] (first compound max 1 µM, 7x7, partner max 10 µM) ?
1

Would you kindly repeat that for Cn1cnc2c(F)c(Nc3ccc(Br)cc3Cl)c(C(=O)NOCCO)cc21 [Selumetinib] + C=CCn1c(=O)c2cnc(Nc3ccc(N4CCN(C)CC4)cc3)nc2n1-c1cccc(C(C)(C)O)n1 [AZD1775] (first compound max 10 µM, partner max 1 µM) ?
1

Would you kindly repeat that for COc1nnc2ccc(N3CCC(c4ccc(OCCN5CCN(C)C(=O)[C@H]5C)cc4)CC3)nn12 [AZD5153] + CC1(C)CCC(CN2CCN(c3ccc(C(=O)NS(=O)(=O)c4ccc(NCC5CCOCC5)c([N+](=O)[O-])c4)c(Oc4cnc5[nH]ccc5c4)c3)CC2)=C(c2ccc(Cl)cc2)C1 [Venetoclax] (first compound max 1 µM, 7x7, partner max 1 µM) ?
0.932
